// provenance: PubChem BioAssay AID722

molecular target: fMet-Leu-Phe receptor (Homo sapiens) (UniProt P21462); assay: human FPR1 ligand displacement screen – cell-based, flow cytometry, SAR analysis, primary screen (AID 722); conditions: FPR-expressing cells, fluorescent ligand binding inhibition, concentration not given here
Sequence (P21462 whole entry, looked up): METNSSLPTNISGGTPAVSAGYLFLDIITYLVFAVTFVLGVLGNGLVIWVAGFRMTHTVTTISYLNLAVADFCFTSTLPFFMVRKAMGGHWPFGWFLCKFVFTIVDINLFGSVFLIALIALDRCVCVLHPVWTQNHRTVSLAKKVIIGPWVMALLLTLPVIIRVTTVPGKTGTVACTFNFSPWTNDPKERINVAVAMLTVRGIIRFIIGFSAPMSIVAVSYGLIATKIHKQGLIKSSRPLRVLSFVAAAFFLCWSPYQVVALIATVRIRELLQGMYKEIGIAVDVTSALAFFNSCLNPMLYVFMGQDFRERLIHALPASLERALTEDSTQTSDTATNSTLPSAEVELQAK
Hit rate of the full screen: of about 1,300 compounds, about 40 (3%) were called active. No stated cut-off is given here; in the data, active means inhibition above about 30%; inactive means the rest. This is one part of a sample in which actives are shown more often than they occur.
Write down the outcome that applies. Available outcomes: 1 = active, 0 = inactive

Query: Tell me the recorded outcome of this test for COCCCN1C(=O)C(=O)/C(=C(/O)c2ccc(C)cc2)C1c1cc(OC)ccc1OC (stereo not drawn) .
Reply: 0

Query: Tell me the recorded outcome of this test for COc1cccc(C2C(C(=O)c3cc4ccccc4o3)=C(O)C(=O)N2CCCN(C)C)c1 (stereo not drawn) .
Reply: 0

====

target: fMet-Leu-Phe receptor (Homo sapiens); experiment: human FPR1 ligand displacement screen – cell-based, flow cytometry, SAR analysis, primary screen (AID 722); settings: FPR-expressing cells, fluorescent ligand binding inhibition, hits give high values, concentration not given here
Among all 1,300 compounds or so, about 40 (3%) were called active. The sample holds actives, similar compounds and a random draw of the others, so the mix is not that of the screen.
Experimental Readout: inhibition (%)
Reply numerically in %, unit not repeated.

# count of solved cases: 6
O=C1CC(c2cccc(Cl)c2Cl)C2=C(CC(c3cccs3)CC2=O)N1 (stereo unspecified)    -15.7
COc1ccc(C2C(C(=O)c3cc4ccccc4o3)=C(O)C(=O)N2CCN(C)C)cc1OC (stereo unspecified)    66.9
CCOc1ccc(C2/C(=C(/O)c3ccccc3)C(=O)C(=O)N2CCO)cc1 (stereo unspecified)    1.5
O=C1CC(c2ccccc2C(F)(F)F)C2=C(CC(c3cccs3)CC2=O)N1 (stereo unspecified)    32.3
O=C1C(=O)N(CCN2CCOCC2)C(c2ccc(Cl)cc2)/C1=C(\O)c1ccc(F)cc1 (stereo unspecified)    -8.1
COc1ccc(C2C(C(=O)c3cc4ccccc4o3)=C(O)C(=O)N2CCN(C)C)cc1 (stereo unspecified)    -8.1

Here is another compound to look at.
Query: Identify the measured inhibition of COc1ccc(Cl)cc1N1C(=O)CSC1c1ccccc1F (stereo unspecified) for fMet-Leu-Phe receptor (Homo sapiens).
Reply: 4.1

====

biological target: fMet-Leu-Phe receptor (Homo sapiens) (UniProt P21462); assay: human FPR1 ligand displacement screen – cell-based, flow cytometry, SAR analysis, primary screen (AID 722); settings: FPR-expressing cells, fluorescent ligand binding inhibition, hits give high values, concentration not given here
Screen size: about 1,300 compounds; about 40 (3%) were called active. Only a selection was taken, and actives are over-represented in it overall.
Catalogue of molecules with associated inhibition
Reply numerically in %, unit not repeated.

O=C1C(=O)N(c2nc3ccccc3s2)C(c2cccc(F)c2)/C1=C(\O)c1ccccc1 (centres undefined)    4.3

Query: Fill in the blank: the reported inhibition of CC(=O)C1=C(O)C(=O)N(Cc2ccco2)C1c1ccc(Br)cc1 (centres undefined) is ____.
Reply: -1.5

Query: Fill in the blank: the reported inhibition of O=C1CC(c2cccc(F)c2)C2=C(CC(c3cccs3)CC2=O)N1 (centres undefined) is ____.
Reply: -6.6

Query: Fill in the blank: the reported inhibition of "COc1cccc(C(=O)N(Cc2ccco2)Cc2ccccc2F)c1" is ____.
Reply: -2.3
